Below, each entry is listed with its recorded Population Hoechst High Intensity Objects (%).
# Test system: U2OS
# Procedure Details: Multiplex assay against U2OS
# Assay type: toxicity, cell-based
# Condition Details: human, 12 h, 1 µM, compound concentration 1 uM, replicate 2
Assay Metric: Population Hoechst High Intensity Objects (%)

[[record]]
compound = "O=C1COc2nccc(-c3ccccc3F)c2CN1Cc1cc(C(F)(F)F)cc(C(F)(F)F)c1"
tested_on = "U2OS"
unit_spec = "%"
assay_result = 2

[[record]]
compound = "O=C(NCC(=O)N1CC[C@H](N[C@H]2CC[C@@](O)(c3ccc(-c4ncccn4)cn3)CC2)C1)c1cccc(C(F)(F)F)c1"
tested_on = "U2OS"
unit_spec = "%"
assay_result = 4

[[record]]
compound = "Cl.Clc1ccc2nsnc2c1NC1=NCCN1 [TIZANIDINE HYDROCHLORIDE]"
tested_on = "U2OS"
unit_spec = "%"
assay_result = 1

[[record]]
compound = "C[C@H](NC(=O)c1c(C(F)F)nn(C)c1Oc1cccc(C(F)(F)F)c1)c1ccc(C(=O)O)cc1"
tested_on = "U2OS"
unit_spec = "%"
assay_result = 0


----------
# Tested on: HEK-293T
# Procedure Details: Multiplex assay against HEK293T
# Assay type: toxicity, cell-based
# Condition Details: human, 48 h, 10 µM, compound concentration 10 uM, replicate 2
Response field label: string, one of fulfilled (Population Mitochondria Different-Phenotype (%) strictly below 30%) or not fulfilled.

[[record]]
compound = "Cl.Clc1ccc2nsnc2c1NC1=NCCN1 [TIZANIDINE HYDROCHLORIDE]"
qualitative_label = "fulfilled"

[[record]]
compound = "CN(C)c1ccnc2sc3c(=O)n(N4CCCCCC4)cnc3c12"
qualitative_label = "not fulfilled"

[[record]]
compound = "Cc1nc2ccc(Oc3ccc(F)cc3)cc2c(=O)n1C[C@H]1CCCN(C(C)C)C1.Cl"
qualitative_label = "not fulfilled"

[[record]]
compound = "O=C(O)c1cc2ccccc2c(Cc2c(O)c(C(=O)O)cc3ccccc23)c1O"
qualitative_label = "fulfilled"


----------
# Tested on: HEK-293T
# Procedure Details: Multiplex assay against HEK293T
# Assay type: toxicity, cell-based
# Condition Details: human, 12 h, 1 µM, compound concentration 1 uM, replicate 2
Assay Metric: Population Apoptotic (%)

[[record]]
compound = "CCCC(CCC)C(=O)O"
tested_on = "HEK-293T"
assay_metric = "Population Apoptotic (%)"
assay_result = "28%"

[[record]]
compound = "O=C(NCCO)c1cccc(-c2cc(Nc3ccc(OC(F)(F)F)cc3)ncn2)c1"
tested_on = "HEK-293T"
assay_metric = "Population Apoptotic (%)"
assay_result = "40%"

[[record]]
compound = "C[C@@H]1C[C@H]2[C@@H]3CCC4=CC(=O)C=C[C@]4(C)[C@@]3(F)[C@@H](O)C[C@]2(C)[C@@]1(O)C(=O)CO"
tested_on = "HEK-293T"
assay_metric = "Population Apoptotic (%)"
assay_result = "53%"

[[record]]
compound = "CCNC1(C(N)=O)CCN(c2ncnc3c2nc(-c2ccccc2Cl)n3-c2ccc(Cl)cc2)CC1"
tested_on = "HEK-293T"
assay_metric = "Population Apoptotic (%)"
assay_result = "58%"

[[record]]
compound = "C[C@H](NC(=O)c1c(C(F)F)nn(C)c1Oc1cccc(C(F)(F)F)c1)c1ccc(C(=O)O)cc1"
tested_on = "HEK-293T"
assay_metric = "Population Apoptotic (%)"
assay_result = "27%"

[[record]]
compound = "CC[C@H]1OC(=O)[C@H](C)[C@@H](O[C@H]2C[C@@](C)(OC)[C@@H](O)[C@H](C)O2)[C@H](C)[C@@H](O[C@@H]2O[C@H](C)C[C@H](N(C)C)[C@H]2O)[C@@]2(C)CC(C)=C(O2)[C@H](C)[C@@H](O)[C@]1(C)O"
tested_on = "HEK-293T"
assay_metric = "Population Apoptotic (%)"
assay_result = "45%"

[[record]]
compound = "Cc1ccccc1C(=O)Nc1ccc(C(=O)N2CCCC(N(C)C)c3ccccc32)cc1.Cl (centres undefined)"
tested_on = "HEK-293T"
assay_metric = "Population Apoptotic (%)"
assay_result = "53%"

[[record]]
compound = "COc1ccc2c(c1)C(C(=O)N(Cc1ccc(N(C)C)cc1)c1ccc(C(C)C)cc1)CCC2.Cl (centres undefined)"
tested_on = "HEK-293T"
assay_metric = "Population Apoptotic (%)"
assay_result = "43%"

[[record]]
compound = "CNC[C@H](O)c1ccc(O)c(O)c1 [EPINEPHRINE]"
tested_on = "HEK-293T"
assay_metric = "Population Apoptotic (%)"
assay_result = "56%"

